Values compiled from ChEMBL document CHEMBL3785074.

- test: Protective activity against Naja kaouthia venom-induced mortality in Swiss albino mouse at 100 mmol, iv preincubated with venom for 1 hr followed by administration to mouse measured after 24 hrs relative to untreated control
- Type: functional
Hi there, I'd appreciate the recorded fold change (FC) for every entry that follows.
The response must contain the number and no unit.

Input: Specify fold change (FC) for `COc1ccc(/C=N/O)c(OC)c1` and stop.
Output: 1

Input: Give the reported fold change (FC) for this molecule. `CCCCOc1ccc(C=O)c(O)c1`
Output: 2.1

Input: Fill in fold change (FC) for record `COc1cccc(CO)c1O`
Output: 3.2

Input: Please list fold change (FC) recorded for the molecule `OCc1cccc(O)c1O`
Output: 2.1

Input: Entry `O=Cc1ccc(O)cc1O` needs its fold change (FC) filled in; supply it.
Output: 1

Input: Please report the measured fold change (FC) for `COc1ccc(C=O)c(OC)c1`
Output: 3.2

Input: Give the value of fold change (FC) reported for the following: `O=Cc1cc(O)ccc1O`
Output: 1

Input: Please give the documented fold change (FC) of O=Cc1cccc(O)c1 [3-HYDROXYBENZALDEHYDE]
Output: 1

Input: Please list fold change (FC) recorded for the molecule `COc1ccc(O)c(C=O)c1`
Output: 2.1
